testSummary: Proposed mechanism(s) of liver damage. [column 'MEC' in source]
conditionDescription: human
quantity: Hepatotoxicity (mechanism)

CCc1oc2ccccc2c1C(=O)c1ccc(O)cc1	Allergic
CCOC(=O)c1c(N)sc2c1CCN(Cc1ccccc1)C2	Allergic
CN1C[C@H](CC#N)C[C@@H]2c3cccc4[nH]c(Cl)c(c34)C[C@H]21	Dose-dependant
COc1cc(C)c(/C=C/C(C)=C/C=C/C(C)=C/C(=O)O)c(C)c1C	Dose-dependant

Return Hepatotoxicity (mechanism) (reported value) for this molecule: O=C1c2c(O)ccc(O)c2C(=O)c2c(NCCNCCO)ccc(NCCNCCO)c21
Dose-dependant

====

conditionDescription: human
quantity: Hepatotoxicity (animal toxicity known)

CO/N=C(\C(=O)N[C@@H]1C(=O)N2C(C(=O)O)=C(CSc3nc(=O)c(=O)[nH]n3C)CS[C@H]12)c1csc(N)n1	yes
O=c1[nH]c(=O)n([C@@H]2O[C@H](CO)[C@@H](O)[C@@H]2F)cc1I	yes
COc1cccc2c1C(=O)c1c(O)c3c(c(O)c1C2=O)C[C@@](O)(C(=O)CO)C[C@@H]3O[C@H]1C[C@H](N)[C@H](O)[C@H](C)O1	yes
CN/C(=N/CCSCc1nc[nH]c1C)NC#N	yes
COc1ccc2c(c1)c(CC(=O)O)c(C)n2C(=O)c1ccc(Cl)cc1	yes
CCN1CC(CCN2CCOCC2)C(c2ccccc2)(c2ccccc2)C1=O (stereo not drawn)	yes

Each compound below has a recorded value; state its Hepatotoxicity (animal toxicity known).
1. N=C(N)c1ccc(/C=C/c2ccc(C(=N)N)cc2)cc1
2. [N-]=[N+]=O [NITROUS OXIDE]

1. yes
2. yes

====

conditionDescription: human, serum
quantity: Hepatotoxicity (acute)

C[C@]12C=CC(=O)C=C1CC[C@@H]1[C@@H]2CC[C@@]2(C)[C@H]1CC[C@]2(C)O (stereo in doubt; form 1) [METHANDROSTENOLONE]	3
CC(C(=O)O)c1ccc(-c2ccccc2)c(F)c1 (centres undefined)	3
CN1CCN(c2c(F)cc3c(=O)c(C(=O)O)cn(CCF)c3c2F)CC1	0

Return Hepatotoxicity (acute) (reported value) for this molecule: CNn1cc(C(=O)O)c(=O)c2cc(F)c(N3CCN(C)CC3)cc21
1

====

conditionDescription: human
Consider the following compounds; for each one, report its Hepatotoxicity (steatosis).

CC(C)n1c(/C=C/C(O)CC(O)CC(=O)O)c(-c2ccc(F)cc2)c2ccccc21 (stereo not given)	0

Each compound below has a recorded value; state its Hepatotoxicity (steatosis).
1. CC(S)C(=O)NCC(=O)O (stereo not given)
2. CN(C)CCN(Cc1ccccc1)c1ccccn1
3. O=C(Cc1cccs1)N[C@@H]1C(=O)N2C(C(=O)[O-])=C(C[n+]3ccccc3)CS[C@H]12
4. FC(F)OC(F)C(F)(F)F (stereo not given)

1. 1
2. 0
3. 0
4. 0

====

testSummary: Highest frequency of moderate liver toxicity observed during clinical trials, expressed as a percentage. [column '% BIOL' in source]
conditionDescription: human
quantity: Hepatotoxicity (moderate) (%)
Give bare numbers, in %.

Worked examples follow.
CO[C@@H](/C(C)=C/C=C/C(C)=C/c1coc(C)n1)[C@@H](C)[C@@H]1C[C@H](O)[C@@]2(C)O[C@@H]2/C=C/[C@@H](C)[C@H]2C[C@H](CC(=O)O2)C[C@@H]2O[C@H]2C(=O)O1 [RHIZOXIN]	7.3
Nc1nc(N)c2nc(-c3ccccc3)c(N)nc2n1	0
COC1=CC(=O)C[C@@H](C)[C@]12Oc1c(Cl)c(OC)cc(OC)c1C2=O [GRISEOFULVIN]	50

Each compound below has a recorded value; state its Hepatotoxicity (moderate).
1. COc1ccc(-n2nc(CCC(=O)N(C)O)cc2-c2ccc(Cl)cc2)cc1 [TEPOXALIN]
2. CN(C)CCOc1ccc(/C(=C(/CCCl)c2ccccc2)c2ccccc2)cc1 [TOREMIFENE]
3. O=C(O)c1cc(/N=N/c2ccc(S(=O)(=O)Nc3ccccn3)cc2)ccc1O [SULFASALAZINE]
4. COCCCN1CCC(NC(=O)c2cc(Cl)c(N)c3c2OCC3)CC1 [PRUCALOPRIDE]

[2.5, 8.3, 26.7, 5.9]

Return Hepatotoxicity (moderate) (reported value) for this compound: C/N=C(/Cc1ccc2ccccc2c1)NC [NAPACTADINE]
0

====

testSummary: Times to onset, minimal and maximal, observed in the indexed observations. [column 'DELAI' in source]
conditionDescription: human
quantity: Hepatotoxicity (time to onset)

Each molecule below has a recorded value; state its Hepatotoxicity (time to onset).
1. O=C(O)COc1nn(Cc2ccccc2)c2ccccc12 [BENDAZAC]
2. CCN(CC)CCNC(=O)c1cc(Cl)c(N)cc1OC [METOCLOPRAMIDE]
3. CCCCCCCCNC(C)C(O)c1ccc(SC(C)C)cc1 (configuration not stated) [SULOCTIDIL]

["3 weeks - 3.5 years", "2 days - 4 months", "1 week - 1 year"]

Each molecule below has a recorded value; state its Hepatotoxicity (time to onset).
1. CC(=O)O[C@@]12CO[C@@H]1C[C@H](O)[C@@]1(C)C(=O)[C@H](O)C3=C(C)[C@@H](OC(=O)[C@H](O)[C@@H](NC(=O)OC(C)(C)C)c4ccccc4)C[C@@](O)([C@@H](OC(=O)c4ccccc4)[C@H]21)C3(C)C.O.O.O [DOCETAXEL]
2. CC(C)NCC(O)COc1cccc2ccccc12 (configuration not stated) [PROPRANOLOL]
3. CCc1cc(C(N)=S)ccn1 [ETHIONAMIDE]
4. CO/N=C(\C(=O)N[C@@H]1C(=O)N2C(C(=O)OC(C)OC(C)=O)=C(COC(N)=O)CS[C@H]12)c1ccco1 (some centres not stated) [CEFUROXIME AXETIL]

1: 3 days - 8 days; 2: 1 month - 9 months; 3: 1 month - 2 years; 4: 4 days

Each molecule below has a recorded value; state its Hepatotoxicity (time to onset).
1. CO[C@@H]1[C@@H](O[C@@H]2O[C@H](C)[C@@H](O[C@H]3C[C@@](C)(O)[C@@H](OC(=O)CC(C)C)[C@H](C)O3)[C@H](N(C)C)[C@H]2O)[C@@H](CC=O)C[C@@H](C)[C@@H](O)/C=C/C=C/C[C@@H](C)OC(=O)C[C@H]1OC(C)=O [JOSAMYCIN]
2. C=COCC(F)(F)F [FLUROXENE]
3. Cc1c(N(C)CS(=O)(=O)[O-])c(=O)n(-c2ccccc2)n1C.[Na+] [DIPYRONE SODIUM]
4. Nc1ccc(S(N)(=O)=O)cc1 [SULFANILAMIDE]
5. NNC(=O)c1ccncc1 [ISONIAZID]
6. NC(=O)NC(=O)Cc1ccccc1 [PHENACEMIDE]
7. CC(=O)[C@H]1CC[C@H]2[C@@H]3CCC4=CC(=O)CC[C@]4(C)[C@H]3CC[C@]12C [PROGESTERONE]

1: 5 days - 2 weeks; 2: 1 day - 5 days; 3: 2 hours - 18 days; 4: 2 weeks - 3 months; 5: 1 day - 1 year; 6: 1 month - 3 months; 7: 1 week - 40 weeks

====

conditionDescription: human
quantity: Hepatotoxicity (association with vascular disease)
Numbers only.

CN1CCN(CCCN2c3ccccc3Sc3ccc(C(F)(F)F)cc32)CC1	0
CCC1=C[C@@H]2CN(C1)Cc1c([nH]c3ccccc13)[C@@](C(=O)OC)(c1cc3c(cc1OC)N(C)[C@H]1[C@@](O)(C(=O)OC)[C@H](OC(C)=O)[C@]4(CC)C=CCN5CC[C@]31[C@@H]54)C2	0
CC(C)=CCC/C(C)=C/CC/C(C)=C/CCC(=O)OC/C=C(\C)CCC=C(C)C [GEFARNATE]	0

Each molecule below has a recorded value; state its Hepatotoxicity (association with vascular disease).
1. CC(=O)OCC(=O)[C@@]1(O)CC[C@H]2[C@@H]3CCC4=CC(=O)C=C[C@]4(C)[C@@]3(F)[C@@H](O)C[C@@]21C [ISOFLUPREDONE ACETATE]
2. CC(C)Nc1cccnc1N1CCN(C(=O)c2cc3cc(NS(C)(=O)=O)ccc3[nH]2)CC1

1. 0
2. 0

Each molecule below has a recorded value; state its Hepatotoxicity (association with vascular disease).
1. NS(=O)(=O)c1cc2c(cc1Cl)NCNS2(=O)=O [HYDROCHLOROTHIAZIDE]
2. Cc1ncc([N+](=O)[O-])n1CCO

0
0

====

testSummary: Proposed mechanism(s) of liver damage. [column 'MEC' in source]
conditionDescription: human, Liver
quantity: Hepatotoxicity (mechanism)

O=C(O)c1ccccc1O.O=C(O)c1ccccc1O.O=C(O)c1ccccc1O	Allergic
Nc1c2c(nc3ccccc13)CCCC2	Dose-dependant
[H]/N=C(/N)N[C@H]1[C@H](O)[C@@H](O)[C@H](O[C@@H]2O[C@@H](C)[C@](O)(C=O)[C@H]2O[C@@H]2O[C@@H](CO)[C@H](O)[C@@H](O)[C@@H]2NC)[C@@H](N/C(N)=N\[H])[C@@H]1O	Allergic
Clc1ccc2nsnc2c1NC1=NCCN1	Allergic
Nc1ccn([C@@H]2O[C@H](CO)[C@@H](O)[C@@H]2O)c(=O)n1	Dose-dependant

Return Hepatotoxicity (mechanism) (reported value) for this molecule: COC(=O)[C@H](c1ccccc1Cl)N1CCc2sccc2C1
Allergic

Where do the numbers come from? From ChEMBL document CHEMBL3137667.
